Experimental target: T1, ZIKV (prM80E) with a C-terminal myc-myc-hexahistidine tag (Zika virus, UniProt A0A024B7W1 104-694)
T1 construct: also called ZIKV (prM80E)-mmH; ZIKV-mmH
Assay method text: SPR, mAb captured, 37C, pH 7.4
Quantity: koff (s⁻¹)
Just the number please, in s⁻¹, no unit attached.

Consider the binder H4H25704N (antibody, V domains shown) VH: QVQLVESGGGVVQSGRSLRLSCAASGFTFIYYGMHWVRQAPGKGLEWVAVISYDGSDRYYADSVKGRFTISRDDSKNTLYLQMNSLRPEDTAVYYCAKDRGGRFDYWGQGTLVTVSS VL: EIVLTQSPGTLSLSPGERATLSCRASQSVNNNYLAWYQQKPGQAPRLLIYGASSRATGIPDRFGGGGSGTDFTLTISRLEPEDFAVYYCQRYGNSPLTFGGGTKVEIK and give its measured koff.
0.00121

Consider the binder H4H25566P (antibody, V domains shown) VH: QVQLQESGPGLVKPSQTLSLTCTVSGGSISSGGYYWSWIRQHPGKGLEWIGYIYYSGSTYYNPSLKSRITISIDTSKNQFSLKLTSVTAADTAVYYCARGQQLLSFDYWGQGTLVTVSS VL: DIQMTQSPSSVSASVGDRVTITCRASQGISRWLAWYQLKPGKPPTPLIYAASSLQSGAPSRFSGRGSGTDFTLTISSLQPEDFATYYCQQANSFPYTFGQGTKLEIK and give its measured koff.
0.0542

Consider the binder H4H25703N (antibody, V domains shown) VH: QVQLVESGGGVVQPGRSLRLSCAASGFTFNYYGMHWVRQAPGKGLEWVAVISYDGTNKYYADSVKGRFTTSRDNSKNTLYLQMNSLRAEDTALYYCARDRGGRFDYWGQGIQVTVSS VL: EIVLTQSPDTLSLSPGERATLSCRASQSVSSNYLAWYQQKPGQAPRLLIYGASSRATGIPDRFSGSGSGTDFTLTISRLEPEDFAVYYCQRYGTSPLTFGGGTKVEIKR and give its measured koff.
0.00211

Sourced from patent US20180016324A1
